This collection of values is drawn from patent US20210130452A1.

Target: human IL-17A (human, UniProt Q16552 24-155, biotinylated with Sulfo-NHS-LC-Biotin in the AlphaScreen assays only)
Sequence (Q16552 other isoform, or with tags, fused parts or gaps): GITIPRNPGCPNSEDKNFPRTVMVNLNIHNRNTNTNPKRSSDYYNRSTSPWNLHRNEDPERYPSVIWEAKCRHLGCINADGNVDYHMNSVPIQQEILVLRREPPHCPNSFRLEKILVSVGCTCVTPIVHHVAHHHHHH
Assay: cell-based or functional assay
IL-17A-induced IL-6 production in HT-1080 cells, Emax values for the binders below.
Give the value, in units of %, as a plain number.

binder | unit text | numeric readout
11A06 (VHH, Class 2 Nanobody (anti-IL-17A and IL-17A/F); not shown: c-myc, His6 tag) VHH: EVQLVESGGGLVQPGESLRLSCKASGFSLDYYALGWFRQAPGKEREGISCITSSDASAYYTDSVKGRFTISRDNSKNTVYLQMNSLKTEDTAIYYCAAALLTCSSYYDAYTYWGQGTQVTVSS | % | 98.5
13E05 (VHH, Class 4 Nanobody (cross-reactive: anti-IL-17A, IL-17F and IL-17A/F); not shown: c-myc, His6 tag) VHH: EVQLVESGGGKVQAGDSLTLSCVASGGTFSNYAAWFRQAPGKDRRELVVSIFRTGSITYTADSVKGRFTASRVNTKNTVYLQMNSLKPEDTAVYYCASAYNPGVGYDYWGQGTQVTVSS | % | 101
04G01 (VHH, Class 2 Nanobody (anti-IL-17A and IL-17A/F); also called IL17MS04G01; not shown: c-myc, His6 tag) VHH: EVQLVESGGGLVQAGGSQRLSCTASGTIVNIHVMGWYRQAPGKQRELVALIFSGGSADYADSVKGRFTISRDNAKNTVYLEMNSLKAEDTAVYYCAAEIGYYSGGTYYSSEAHWGQGTQVTVSS | % | 113
01D02 (VHH, Class 1 Nanobody (anti-IL-17A); not shown: c-myc, His6 tag) VHH: EVQLVESGGGLVQAGGSLRLSCAASGLSFSSYALGWFRQAPGKERDFVAAINWSGDNTHYADSVKGRFTISRDNAKNTVSLQMNSLKPEDTAVYYCAAQLGYESGYSLTYDYDYWGQGTQVTVSS | % | 101
01D06 (VHH, Class 2 Nanobody (anti-IL-17A and IL-17A/F); not shown: c-myc, His6 tag) VHH: EVQLVESGGGLVQAGGSLRLSCAADGRTFSTYGMTWFRQVPGKEREFVAHIPRSTYSPYYANSVKGRFTIARDDAKSTVYLQMNSLKPEDTAVYYCAVFTGGTYYVPTAYDYWGQGTQVTVSS | % | 98.3
01G03 (VHH, Class 1 Nanobody (anti-IL-17A); not shown: c-myc, His6 tag) VHH: EVQLVESGGGLVQAGGSLRLSCAASERTISNYDMGWFRQAPGKERELIAADISWSALNTNYADSVKGRFTISRDNAKNMVYLQMNNLKPEDTAVYYCAARRSGYASFDNWGQGTQVTVSS | % | 85.7
09D10 (VHH, Class 2 Nanobody (anti-IL-17A and IL-17A/F); not shown: c-myc, His6 tag) VHH: EVQLVESGGGLVQAGGSLSLSCAASGSVFRIDVMRWHRQAPGKQREFLASIASGGTTNYADSVKGRFTISRDNAKNTVYLQMNSLKPEDTAVYYCGANAESGPYTYWGLGTQVTVSS | % | 93.5
11C08 (VHH, Class 4 Nanobody (cross-reactive: anti-IL-17A, IL-17F and IL-17A/F); not shown: c-myc, His6 tag) VHH: EVQLVESGGGLVQAGGSLRLSCAASGVIFRLNAMGWYRAAPGKQRELVAIIVNGGSTNYADSVKGRFTISRDSAKNAVYLQMNSLKPEDTAVYYCYYNIPGDVYWGQGTQVTVSS | % | 73
10A04 (VHH, Class 4 Nanobody (cross-reactive: anti-IL-17A, IL-17F and IL-17A/F); not shown: c-myc, His6 tag) VHH: EVQLVESGGGLVQPGGSLRLSCAASGFTFSSYWMYWVRQAPGKGLEWISALAPGGGNRYYAESVNGRFTISRDNAKNSLYLQMNSLKSEDTAVYYCAKDHNVGYRTGEYDYGGQGTQVTVSS | % | 31.5
04B10 (VHH, Class 2 Nanobody (anti-IL-17A and IL-17A/F); not shown: c-myc, His6 tag) VHH: EVQLVESGGGLVQAGGSQSLSCVASGTIVNINVMGWYRQAPGKQRELVALITSGGGTTYGDSVKGRFTISIDNAKNTVILQMNSLEAEDTAVYYCAAEIGYYSGGTYFSSEAHWGQGTQVTVSS | % | 99.7

Now take the following binder into account.
Documented IL-17A-induced IL-6 production in HT-1080 cells, Emax of 03B08 (VHH, Class 1 Nanobody (anti-IL-17A); not shown: c-myc, His6 tag) VHH: EVQLVESGGGLVQAGGSLRLSCAASGFTFDDYAIGWFRQAPGKEREGVSCISSSDGSIYYADSVKGRFTISSDNAKNTVYLQMNSLKPEDTAVYHCARFGRTGWAEECVDYDYWGQGTQVTVSS : 98.5
